# System: Rattus norvegicus
# TEST: Minimum effective concentration by rat glucose tolerance test (po)
# Type: functional
# CONDITION DETAILS: read-out: MED
Recorded minimal effective dose by entry
READOUT LABEL: minimal effective dose

> print(dat)
                                   molecule           readout.label  recorded.value
1  CCCCCCCCCCCCCCC1(C(=O)[O-])CO1.[Na+] (configuration not stated)  minimal effective dose       2.5 mg/kg
2  COC(=O)C1(CCCCCCCCCCc2ccccc2)CO1 (configuration not stated)  minimal effective dose        10 mg/kg
3  CCCCCCC1(C(=O)OC)CO1 (configuration not stated)  minimal effective dose        10 mg/kg
4  CCCCCCCCCCCCCCC1(C(=O)O)CO1 (configuration not stated) [PALMOXIRATE]  minimal effective dose         5 mg/kg
5  CCCCCCCCCCCCCCC1(C(N)=O)CO1 (configuration not stated)  minimal effective dose        10 mg/kg
6  CCCCCCCCCCCCCCC1(C(=O)OCCCC)CO1 (configuration not stated)  minimal effective dose       1.5 mg/kg
7  CCCCCCCCCCCC1(C(=O)OC)CO1 (configuration not stated)  minimal effective dose        10 mg/kg
